Target: NLRP3 inflammasome (Homo sapiens)
Construct: endogenous in cells
Test: IL-1β secretion assay (NLRP3 IC50) in LPS-primed, nigericin-activated THP-1 cells, HTRF
Details: monocytic THP-1 cells; LPS 10 ng/mL 3 h priming, then compound + nigericin 10 μM 2 h; relative IC50, 10 concentrations, geometric mean
pIC50: −log10 of the molar value.

compound: Cc1cc(C(F)(F)F)cc(O)c1-c1ccc(N2CCO[C@@H]3CN(C)C[C@@H]32)nn1 (single isomer, unassigned)
target-entity: NLRP3 inflammasome (Homo sapiens)
pIC50: 7.14
//
compound: Cc1cc(C)c(-c2ccc(N3CCCc4c(O)cccc43)nn2)c(O)c1
target-entity: NLRP3 inflammasome (Homo sapiens)
pIC50: 6.30
//
compound: Cc1ccc(-c2nnc(N3CCO[C@H](CO)C3)cc2C(F)F)c(O)c1
target-entity: NLRP3 inflammasome (Homo sapiens)
pIC50: 6.82
//
compound: Cc1ccc(-c2nnc(N3CCO[C@@H]4CCN(C(C)C)C[C@@H]43)cc2C)c(O)c1
target-entity: NLRP3 inflammasome (Homo sapiens)
pIC50: 9.00
//
compound: Cc1cc(C(F)(F)F)cc(O)c1-c1ccc(N2CCC[C@H]3[C@@H]2CCCN3C)nn1
target-entity: NLRP3 inflammasome (Homo sapiens)
pIC50: 7.36
//
compound: CCc1cccc(O)c1-c1ccc(N2CCO[C@@H]3CCN(C(C)C)C[C@@H]32)nn1
target-entity: NLRP3 inflammasome (Homo sapiens)
pIC50: 8.30
//
compound: Cc1cc(Cl)cc(O)c1-c1ccc(N2CCO[C@H](CO)C2)nn1
target-entity: NLRP3 inflammasome (Homo sapiens)
pIC50: 8.22
//
compound: CN1CC[C@H]2OCCN(c3cc(C(F)F)c(-c4ccc(Cl)cc4O)nn3)[C@H]2C1
target-entity: NLRP3 inflammasome (Homo sapiens)
pIC50: 9.00
//
compound: CC(=O)NC[C@@H]1CCCN(c2ccc(-c3c(C)cc(Cl)cc3O)nn2)C1
target-entity: NLRP3 inflammasome (Homo sapiens)
pIC50: 7.47
//
compound: CC(=O)N1CCC2OCCN(c3ccc(-c4c(C)cc(C(F)(F)F)cc4O)nn3)C2C1 (single isomer, unassigned)
target-entity: NLRP3 inflammasome (Homo sapiens)
pIC50: 5.94
//
compound: Cc1cc(C)c(-c2ccc(N3CCC[C@@H](N(C)C)C3)nn2)c(O)c1
target-entity: NLRP3 inflammasome (Homo sapiens)
pIC50: 6.04
//
compound: Cc1cc(C)c(-c2ccc(N3CC(=O)N[C@H](CO)C3)nn2)c(O)c1 (single isomer, unassigned)
target-entity: NLRP3 inflammasome (Homo sapiens)
pIC50: 6.01
//
compound: Cc1cc(C)c(-c2ccc(N3CCO[C@H]4C[C@H](O)C[C@H]43)nn2)c(O)c1 (single isomer, unassigned)
target-entity: NLRP3 inflammasome (Homo sapiens)
pIC50: 7.85
//
compound: CC(=O)NC[C@H]1CCCN(c2ccc(-c3c(C)cc(Cl)cc3O)nn2)C1
target-entity: NLRP3 inflammasome (Homo sapiens)
pIC50: 7.41
//
compound: Cc1cc(C(F)(F)F)cc(O)c1-c1ccc(N2CCOC(CN(C)C)C2)nn1 (stereo not shown) [Example 24]
target-entity: NLRP3 inflammasome (Homo sapiens)
pIC50: 6.20
//
compound: Cc1cc(C)c(-c2ccc(N3CCCc4ccc(O)cc43)nn2)c(O)c1
target-entity: NLRP3 inflammasome (Homo sapiens)
pIC50: 6.90
//
compound: CCN1CC[C@@H]2CCN(c3ccc(-c4c(C)cccc4O)nn3)[C@@H]2C1 (single isomer, unassigned)
target-entity: NLRP3 inflammasome (Homo sapiens)
pIC50: 8.52
//
compound: CN(C)C[C@H]1CN(c2ccc(-c3c(O)cc(Cl)cc3Cl)nn2)CCO1
target-entity: NLRP3 inflammasome (Homo sapiens)
pIC50: 6.62
//
compound: Cc1cc(C)c(-c2ccc(N3CCO[C@@H]4CCN(CCCF)C[C@@H]43)nn2)c(O)c1
target-entity: NLRP3 inflammasome (Homo sapiens)
pIC50: 7.70
//
compound: Cc1cc(C)c(-c2ccc(N3CCOC4CCOCC43)nn2)c(O)c1 (racemic)
target-entity: NLRP3 inflammasome (Homo sapiens)
pIC50: 5.91
//
compound: COc1cc(C)c(-c2ccc(N3CCO[C@H](CO)C3)nn2)c(O)c1
target-entity: NLRP3 inflammasome (Homo sapiens)
pIC50: 6.91
//
compound: Cc1cc(C(F)(F)F)cc(O)c1-c1ccc(N2CCC[C@@H](CO)C2=O)nn1 (single isomer, unassigned)
target-entity: NLRP3 inflammasome (Homo sapiens)
pIC50: 6.84
//
compound: OC[C@@H]1CN(c2cc(C(F)F)c(-c3ccc(C(F)(F)F)cc3O)nn2)CCO1
target-entity: NLRP3 inflammasome (Homo sapiens)
pIC50: 6.77
//
compound: Cc1cc(N2CC[C@H]3CCN(C)C[C@H]32)nnc1-c1ccc(Cl)cc1O (single isomer, unassigned) [Example 469]
target-entity: NLRP3 inflammasome (Homo sapiens)
pIC50: 9.00
//
compound: Cc1cc(C)c(-c2ccc(N3CCO[C@H](CCO)C3)nn2)c(O)c1 (single isomer, unassigned)
target-entity: NLRP3 inflammasome (Homo sapiens)
pIC50: 6.79
//
compound: Oc1cc(Cl)cc(Cl)c1-c1ccc(N2CCC3(CC(O)C3)C2)nn1 (stereo not shown)
target-entity: NLRP3 inflammasome (Homo sapiens)
pIC50: 6.87
//
compound: CNC(=O)[C@@H]1CN(c2ccc(-c3c(C)cc(C)cc3O)nn2)CCO1
target-entity: NLRP3 inflammasome (Homo sapiens)
pIC50: 5.48
//
compound: Cc1cc(Cl)cc(O)c1-c1cc(C#N)c(N2CCO[C@H](CO)C2)nn1
target-entity: NLRP3 inflammasome (Homo sapiens)
pIC50: 8.15
//
compound: Cc1cc(C)c(-c2ccc(N3C[C@@H](N)CC3=O)nn2)c(O)c1
target-entity: NLRP3 inflammasome (Homo sapiens)
pIC50: 6.41
//
compound: CCN1CC[C@H]2OCCN(c3ccc(-c4c(C)cccc4O)nn3)[C@H]2C1
target-entity: NLRP3 inflammasome (Homo sapiens)
pIC50: 7.74
//
compound: CCN1CC[C@@H]2OCCN(c3ccc(-c4c(C)cc(Cl)cc4O)nn3)[C@@H]2C1 (racemic) [Example 223]
target-entity: NLRP3 inflammasome (Homo sapiens)
pIC50: 9.00

###

// IC50 lookup, one value per entry
Target: NLRP3 inflammasome (Homo sapiens, UniProt Q96P20)
Construct: endogenous in cells
Sequence (Q96P20 whole entry): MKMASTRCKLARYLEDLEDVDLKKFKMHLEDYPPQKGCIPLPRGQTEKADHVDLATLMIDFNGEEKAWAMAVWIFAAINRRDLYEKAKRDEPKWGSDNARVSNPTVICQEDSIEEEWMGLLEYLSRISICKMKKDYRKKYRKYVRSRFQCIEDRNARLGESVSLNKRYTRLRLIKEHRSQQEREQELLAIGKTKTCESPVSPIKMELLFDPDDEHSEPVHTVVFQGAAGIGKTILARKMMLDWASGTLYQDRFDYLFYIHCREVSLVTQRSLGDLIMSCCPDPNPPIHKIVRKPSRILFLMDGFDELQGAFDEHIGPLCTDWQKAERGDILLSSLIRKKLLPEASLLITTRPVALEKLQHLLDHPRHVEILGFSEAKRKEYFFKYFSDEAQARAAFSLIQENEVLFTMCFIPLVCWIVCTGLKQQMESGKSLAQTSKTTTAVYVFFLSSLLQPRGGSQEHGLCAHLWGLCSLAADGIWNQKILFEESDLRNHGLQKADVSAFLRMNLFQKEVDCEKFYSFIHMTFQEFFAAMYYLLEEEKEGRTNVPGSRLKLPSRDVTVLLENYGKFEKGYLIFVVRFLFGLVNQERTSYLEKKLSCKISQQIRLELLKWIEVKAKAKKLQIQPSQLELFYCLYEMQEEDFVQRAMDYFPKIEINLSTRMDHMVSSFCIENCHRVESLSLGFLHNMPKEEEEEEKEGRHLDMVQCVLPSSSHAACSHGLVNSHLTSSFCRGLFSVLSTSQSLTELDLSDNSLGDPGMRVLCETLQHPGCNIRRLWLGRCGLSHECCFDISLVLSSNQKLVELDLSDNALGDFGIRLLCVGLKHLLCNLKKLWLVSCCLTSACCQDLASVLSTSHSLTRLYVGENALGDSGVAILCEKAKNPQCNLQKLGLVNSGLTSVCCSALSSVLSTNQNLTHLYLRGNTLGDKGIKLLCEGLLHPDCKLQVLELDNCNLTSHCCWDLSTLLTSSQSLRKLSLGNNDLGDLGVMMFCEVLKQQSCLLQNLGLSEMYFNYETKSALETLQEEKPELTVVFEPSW
Assay: IL-1β secretion assay (NLRP3 IC50) in LPS-primed, nigericin-activated THP-1 cells, HTRF
Conditions: monocytic THP-1 cells; LPS 10 ng/mL 3 h priming, then compound + nigericin 10 μM 2 h; relative IC50, 10 concentrations, geometric mean

compound: CC(=O)NC[C@@H]1CCCN(c2ccc(-c3c(O)cc(Cl)cc3Cl)nn2)C1 [Example 58]
target-entity: NLRP3 inflammasome (Homo sapiens, UniProt Q96P20)
IC50, nM: 64

compound: Cc1cc(C)c(-c2ccc(N3CCC[C@@H]4CCN(C)C[C@H]43)nn2)c(O)c1 [Example 517]
target-entity: NLRP3 inflammasome (Homo sapiens, UniProt Q96P20)
IC50, nM: 1340

compound: Cc1cccc(O)c1-c1ccc(N2CCO[C@@H]3CCNC[C@@H]32)nn1 [Example 411]
target-entity: NLRP3 inflammasome (Homo sapiens, UniProt Q96P20)
IC50, nM: 344

compound: Cc1cc(C)c(-c2ccc(N3C[C@@H](CO)O[C@H](C)C3)nn2)c(O)c1 [Example 359]
target-entity: NLRP3 inflammasome (Homo sapiens, UniProt Q96P20)
IC50, nM: 98

###

// IC50 lookup, one value per entry
Target: NLRP3 inflammasome (Homo sapiens, UniProt Q96P20)
Construct: endogenous in cells
Assay: IL-1β secretion assay (NLRP3 IC50) in LPS-primed, nigericin-activated THP-1 cells, HTRF
Details: monocytic THP-1 cells; LPS 10 ng/mL 3 h priming, then compound + nigericin 10 μM 2 h; relative IC50, 10 concentrations, geometric mean
observation-type: IC50 (nM)

molecule: OC[C@@H]1CN(c2cc(C(F)F)c(-c3ccc4c(c3O)CCC4)nn2)CCO1 [Example 345]
observed-value: 125
//
molecule: CCc1cc(C(F)(F)F)cc(O)c1-c1ccc(N2CC[C@@H]3CCN(C)C[C@@H]32)nn1 (racemic) [Example 452]
observed-value: 5
//
molecule: NC[C@@H]1CCCN(c2ccc(-c3c(O)cc(Cl)cc3Cl)nn2)C1 [Example 18]
observed-value: 173
//
molecule: Cc1cc(C)c(-c2ccc(N3CC[C@@H]3CO)nn2)c(O)c1 [Example 118]
observed-value: 758
//
molecule: Cc1cc(C)c(-c2ccc(N3CCc4cc(O)ccc43)nn2)c(O)c1 [Example 236]
observed-value: 551
//
molecule: CC(=O)N1CC[C@H]2OCCN(c3cc(C)c(-c4ccc(Cl)cc4O)nn3)[C@H]2C1 [Example 357]
observed-value: 48
//
molecule: Cc1cc(C(F)(F)F)cc(O)c1-c1ccc(N2CCO[C@H](CO)C2=O)nn1 (stereo in doubt) [Example 368]
observed-value: 188
//
molecule: CC(=O)N1CC[C@H]2CCN(c3ccc(-c4c(C)cc(C)cc4O)nn3)[C@H]2C1 (racemic) [Example 394]
observed-value: 310

Source of measurements: patent US20240360151A1
